# Test system: Rab2 wt, Rab7 wt, Cdc42 wt, Cdc42Q61L, H-Ras wt, H-RasG12V, Rac1 wt and Rac1Q61L
# test.summary: Primary multiplex screen, BODIPY-FL-GTP binding on bead-bound GTPases (flow cytometry)
# assay.conditions: single dose 10 µM; change in BODIPY-GTP binding on any one GTPase
measured.parameter: Primary Screen Hit

Guide cases for Primary Screen Hit, answers given:
>  <compound>
COc1ccc2cc([C@@H](C)C(=O)O)ccc2c1 [R-naproxen]

>  <observed.value>
Active

$$$$
>  <compound>
CC(C)Cc1ccc([C@H](C)C(=O)O)cc1 [S-(+)-Ibuprofen, (S)-(+)-Ibuprofen]

>  <observed.value>
Active

$$$$
>  <compound>
CC(C(=O)O)c1ccc(C(=O)c2cccs2)cc1 (stereo not shown) [Suprofen]

>  <observed.value>
Inactive

$$$$
>  <compound>
O=C(O)Cc1ccccc1Nc1c(Cl)cccc1Cl [Diclofenac sodium]

>  <observed.value>
Inactive

$$$$
>  <compound>
CC(C(=O)O)c1cccc(Oc2ccccc2)c1 (stereo not shown) [Fenoprofen]

>  <observed.value>
Active

$$$$

QUERY: Returns the measured Primary Screen Hit for the input compound. Input: O=C(O)c1cc(-c2ccc(F)cc2F)ccc1O [Diflunisal]
RESULT: Inactive

QUERY: Same question, CC(=O)Oc1ccccc1C(=O)Oc1ccccc1C(=O)O [Acetylsalicylsalicylic acid] this time
RESULT: Inactive

QUERY: Same question, CC(=O)Nc1ccc(O)cc1 [Acetaminophen] this time
RESULT: Inactive

====

# subject.of.test: Rac1 (Homo sapiens)
# Construct: endogenous in cells
# test.summary: G-trap flow cytometric effector binding assay, HeLa cells
# assay.conditions: ketorolac enantiomers, EGF stimulation, read-out: EC50 against Rac1
measured.parameter: EC50 (nM)
Give just the number in nM; leave the unit off.

QUERY: Returns the measured EC50 for the input molecule. Input: O=C(c1ccccc1)c1ccc2n1CC[C@H]2C(=O)O
RESULT: 574

====

# subject.of.test: human COX-1 (Homo sapiens, UniProt P23219)
# Sequence (P23219 24-599): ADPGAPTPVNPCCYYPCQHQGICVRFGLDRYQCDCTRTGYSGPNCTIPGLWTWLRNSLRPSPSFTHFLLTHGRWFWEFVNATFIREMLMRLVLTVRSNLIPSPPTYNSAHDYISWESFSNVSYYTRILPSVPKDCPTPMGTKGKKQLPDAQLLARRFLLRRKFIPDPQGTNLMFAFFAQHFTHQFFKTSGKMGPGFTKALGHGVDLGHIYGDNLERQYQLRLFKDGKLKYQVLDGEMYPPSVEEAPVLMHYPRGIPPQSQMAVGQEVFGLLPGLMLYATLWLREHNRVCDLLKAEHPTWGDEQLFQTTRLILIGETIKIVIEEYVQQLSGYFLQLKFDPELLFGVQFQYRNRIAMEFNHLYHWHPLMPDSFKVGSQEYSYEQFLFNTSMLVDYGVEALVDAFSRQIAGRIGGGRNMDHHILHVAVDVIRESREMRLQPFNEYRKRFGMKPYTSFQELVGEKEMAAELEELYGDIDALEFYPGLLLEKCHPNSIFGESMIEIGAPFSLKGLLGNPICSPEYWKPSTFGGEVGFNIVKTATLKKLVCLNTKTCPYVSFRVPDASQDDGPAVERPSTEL
# test.summary: Cyclooxygenase assay (CEREP), PGE2 formation
# assay.conditions: recombinant enzyme, 4 μM arachidonic acid
measured.parameter: IC50

QUERY: Give human COX-1 (Homo sapiens, UniProt P23219) IC50 for COc1ccc2cc(CC(=O)O)ccc2c1
RESULT: 28000 nM

QUERY: Same question, COc1ccc(C2CC(c3ccccc3)=NN2c2ccc(S(N)(=O)=O)cc2)cc1 (stereo not shown) this time
RESULT: 1800 nM

QUERY: Same question, O=C(c1ccccc1)c1ccc2n1CC[C@H]2C(=O)O this time
RESULT: 990 nM

QUERY: Same question, O=C(c1ccccc1)c1ccc2n1CC[C@@H]2C(=O)O this time
RESULT: < 10 nM

====

# Test system: Ras-related GTPases
# test.summary: Confirmatory dose response assays on eight Ras-related GTPases
# Format: binding
# assay.conditions: 10 nM to 100 µM
measured.parameter: activity against the GTPases in confirmatory dose response assays (words)

Guide cases for activity against the GTPases in confirmatory dose response assays (words), answers given:
>  <compound>
COc1ccc2cc([C@H](C)C(=O)O)ccc2c1

>  <observed.value>
varying activity levels

$$$$
>  <compound>
Cc1onc(-c2ccccc2)c1-c1ccc(S(N)(=O)=O)cc1

>  <observed.value>
inactive

$$$$
>  <compound>
Cc1ccc(-c2cc(C(F)(F)F)nn2-c2ccc(S(N)(=O)=O)cc2)cc1

>  <observed.value>
inactive

$$$$
>  <compound>
COc1ccc2cc([C@@H](C)C(=O)O)ccc2c1

>  <observed.value>
varying activity levels

$$$$

# next compound below
QUERY: Returns the measured activity against the GTPases in confirmatory dose response assays (words) for the input compound. Input: CSc1ccc(/C=C2/C(C)=C(CC(=O)O)c3cc(F)ccc32)cc1 [Sulindac sulfide]
RESULT: varying activity levels

====

# subject.of.test: Cdc42 (Homo sapiens)
# Construct: endogenous in cells
# Sequence (P60953 whole entry): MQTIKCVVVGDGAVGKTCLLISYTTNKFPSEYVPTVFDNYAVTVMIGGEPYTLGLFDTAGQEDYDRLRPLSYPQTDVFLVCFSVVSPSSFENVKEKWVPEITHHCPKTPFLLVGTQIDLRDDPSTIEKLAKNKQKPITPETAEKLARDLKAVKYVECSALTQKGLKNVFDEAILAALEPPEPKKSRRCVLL
# test.summary: G-trap flow cytometric effector binding assay, HeLa cells
# assay.conditions: ketorolac enantiomers, EGF stimulation, read-out: EC50 against Cdc42
measured.parameter: pEC50
Worth noting: pEC50 values are minus log10 of concentrations stated in mol/L.

QUERY: Returns the measured pEC50 for the input compound. Input: O=C(c1ccccc1)c1ccc2n1CC[C@H]2C(=O)O
RESULT: 5.97

====

For each of the compounds below, state its pEC50.
# subject.of.test: Cdc42Q61L activating mutant (Homo sapiens, UniProt P60953, Q61L)
# Sequence (P60953 whole entry Q61L): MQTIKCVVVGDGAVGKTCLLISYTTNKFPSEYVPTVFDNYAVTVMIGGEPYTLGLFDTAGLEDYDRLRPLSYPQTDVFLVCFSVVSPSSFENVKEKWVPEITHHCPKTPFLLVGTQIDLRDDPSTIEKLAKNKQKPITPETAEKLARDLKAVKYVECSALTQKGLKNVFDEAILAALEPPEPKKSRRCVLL
# test.summary: Dose response, BODIPY-GTP binding
# assay.conditions: 10 nM to 100 µM; read-out: Cdc42 (act) EC50
Worth noting: pEC50 values are minus log10 of concentrations stated in mol/L.

QUERY: Returns the measured pEC50 for the input compound. Input: CSc1ccc(/C=C2/C(C)=C(CC(=O)O)c3cc(F)ccc32)cc1 [Sulindac sulfide]
RESULT: 4.31

QUERY: Same question, COc1ccc2cc(CC(=O)O)ccc2c1 this time
RESULT: 4.91

QUERY: Same question, COc1ccc(C2CC(c3ccccc3)=NN2c2ccc(S(N)(=O)=O)cc2)cc1 (stereo not shown) this time
RESULT: 5.27

QUERY: Same question, CC(C)Cc1ccc([C@H](C)C(=O)O)cc1 [S-(+)-Ibuprofen, (S)-(+)-Ibuprofen] this time
RESULT: 5.19

====

# subject.of.test: Rac1Q61L activating mutant (Homo sapiens, UniProt P63000, Q61L)
# test.summary: Dose response, BODIPY-GTP binding
# assay.conditions: 10 nM to 100 µM; read-out: Rac1 (act) EC50
measured.parameter: EC50 (µM)
Give just the number in µM; leave the unit off.

QUERY: Give Rac1Q61L activating mutant (Homo sapiens, UniProt P63000, Q61L) EC50 for CSc1ccc(/C=C2/C(C)=C(CC(=O)O)c3cc(F)ccc32)cc1 [Sulindac sulfide]
RESULT: 53

====

# subject.of.test: Rac1 wt (Homo sapiens, UniProt P63000)
# test.summary: Dose response, BODIPY-GTP binding
# assay.conditions: 10 nM to 100 µM
measured.parameter: EC50

QUERY: Returns the measured EC50 for the input compound. Input: CSc1ccc(/C=C2/C(C)=C(CC(=O)O)c3cc(F)ccc32)cc1 [Sulindac sulfide]
RESULT: 54 µM

====

# subject.of.test: human COX-2 (Homo sapiens)
# Sequence (P35354 18-604): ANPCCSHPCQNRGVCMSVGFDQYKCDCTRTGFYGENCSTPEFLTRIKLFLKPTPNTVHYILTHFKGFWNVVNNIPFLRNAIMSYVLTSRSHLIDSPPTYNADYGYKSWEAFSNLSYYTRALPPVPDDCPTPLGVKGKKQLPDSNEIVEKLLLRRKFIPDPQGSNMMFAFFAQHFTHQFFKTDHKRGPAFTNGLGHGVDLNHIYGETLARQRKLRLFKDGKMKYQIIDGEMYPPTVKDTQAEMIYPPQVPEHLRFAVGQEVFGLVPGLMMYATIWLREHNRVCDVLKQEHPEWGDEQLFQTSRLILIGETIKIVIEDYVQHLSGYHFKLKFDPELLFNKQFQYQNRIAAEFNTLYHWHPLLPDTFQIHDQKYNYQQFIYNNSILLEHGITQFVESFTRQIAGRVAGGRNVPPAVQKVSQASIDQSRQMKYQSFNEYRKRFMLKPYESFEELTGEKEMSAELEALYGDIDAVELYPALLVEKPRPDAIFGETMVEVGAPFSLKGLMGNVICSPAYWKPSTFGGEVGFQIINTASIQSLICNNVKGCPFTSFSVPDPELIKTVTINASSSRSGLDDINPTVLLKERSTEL
# test.summary: Cyclooxygenase assay (CEREP), PGE2 formation
# assay.conditions: recombinant enzyme, 4 μM arachidonic acid
For each of the molecules below, state its IC50.
Give just the number in nM; leave the unit off.

QUERY: Returns the measured IC50 for the input molecule. Input: COc1ccc(C2CC(c3ccccc3)=NN2c2ccc(S(N)(=O)=O)cc2)cc1 (stereo not shown)
RESULT: 580

QUERY: Same question, O=C(c1ccccc1)c1ccc2n1CC[C@@H]2C(=O)O this time
RESULT: 85

====

# System: Rab2 wt, Rab7 wt, Cdc42 wt, Cdc42Q61L, H-Ras wt, H-RasG12V, Rac1 wt and Rac1Q61L
# test.summary: Primary multiplex screen, BODIPY-FL-GTP binding on bead-bound GTPases (flow cytometry)
# assay.conditions: single dose 10 µM; change in BODIPY-GTP binding on any one GTPase
Structures can show the parent of a compound that is named as a salt.
measured.parameter: Primary Screen Hit

Guide cases for Primary Screen Hit, answers given:
>  <molecule>
CC(C(=O)O)c1ccc(C(=O)c2ccccc2)s1 (centres unmarked)

>  <observed.value>
Inactive

$$$$
>  <molecule>
CN1C(C(=O)Nc2ccccn2)=C(O)c2ccccc2S1(=O)=O

>  <observed.value>
Inactive

$$$$
>  <molecule>
Cc1c(Cl)cccc1Nc1ccccc1C(=O)O

>  <observed.value>
Inactive

$$$$
>  <molecule>
CC1=C(CC(=O)O)c2cc(F)ccc2/C1=C\c1ccc([S+](C)[O-])cc1 (centres unmarked)

>  <observed.value>
Inactive

$$$$

# next molecule below
QUERY: Returns the measured Primary Screen Hit for the input molecule. Input: Cc1ccc(C(=O)c2ccc(CC(=O)O)n2C)cc1 [Tolmetin sodium salt dihydrate]
RESULT: Inactive
